Ref: PubChem BioAssay (NCI)

system: SF-295 CNS; assay: NCI tumour cell line growth inhibition, 48 h
Listed below: TGI values for each entry.

Previously resolved entries follow.
1) Cc1ccc(/C(O)=C/c2nc3ccccc3sc2=O)c(C)c1	> 100 µM
2) Cc1ccc(OCC2OC(n3cnc4nc(N)nc(Cl)c43)CC2Oc2ccc(C)cc2)cc1 (stereo not drawn)	84.1 µM
3) O=c1[nH]nc(-c2ccccc2)n1/N=C\c1ccccc1	> 100 µM
4) Cc1ccc(S(=O)(=O)n2c3ccc(Br)cc3c3nc4ccccc4nc32)cc1	> 100 µM
5) CN(C)C(=O)OC1C(=O)N(C)c2ccc(Cl)cc2C2(c3ccccc3)N1C2(Cl)Cl (stereo not drawn)	> 100 µM
6) O=C1Nc2ccc(Br)cc2C1=Nc1cccnc1	> 100 µM
7) O=[N+]([O-])c1ccc(-n2nnc(C3=NCCN3)c2-c2ccccc2)cc1	> 100 µM
8) CC1=NN(C(=O)c2ccccc2O)C(=O)/C1=C/c1ccc(O)cc1	> 100 µM
9) O=C1NNC2(C(=O)N1)c1ccccc1-c1ccccc12	> 10 µM
10) C=C1CC2OC(=O)C(=C)C2C(O)C2C(=C)CCC12 (stereo not drawn)	22.8 µM

Problem: State its TGI on SF-295 CNS: `O=C(Nc1cccc(-n2cc(-c3ccncc3)c(-c3ccc(Cl)c(O)c3)n2)c1)Nc1cc(C(F)(F)F)cc(C(F)(F)F)c1`
Result: 1.65 µM

Problem: State its TGI on SF-295 CNS: `NC(=O)CN(CC(N)=O)C(N)=O`
Result: > 100 µM

Problem: State its TGI on SF-295 CNS: CC1(C)CC(O)C(C)(C)[C@@H](O)C1 (stereo partly drawn)
Result: > 100 µM

Problem: State its TGI on SF-295 CNS: NC(=O)N/N=C1/CCC(O)CC1CC(=O)O (stereo not drawn)
Result: > 100 µM

Problem: State its TGI on SF-295 CNS: `CSc1nnc(CCC(=O)Nc2c(C)cccc2C)o1`
Result: > 100 µM

Problem: State its TGI on SF-295 CNS: COc1ccc2c3c1OC1C(=O)C=CC4(CC2)N(C)CCC314 (stereo not drawn)
Result: > 100 µM

Problem: State its TGI on SF-295 CNS: O=C1OCC2=C1C(c1cccc(Cl)c1)c1cc3c(cc1N2CCO)OCCO3 (stereo not drawn)
Result: 3.25 µM

Problem: State its TGI on SF-295 CNS: `COc1ccc(C/C(C)=C(/c2ccc(OCCN3CCCCC3)cc2)c2ccc(OC(=O)NCc3ccccc3)cc2)cc1`
Result: 0.802 µM

Problem: State its TGI on SF-295 CNS: `ClCCCc1ccccc1C1=NCCc2ccccc21`
Result: > 100 µM

Problem: State its TGI on SF-295 CNS: `NS(=O)(=O)c1ccc(/C=C/c2ccc(F)cc2)cc1`
Result: 78.6 µM

Problem: State its TGI on SF-295 CNS: CC(=O)Oc1cc2c(cc1OC(C)=O)OCC(c1ccc(C)cc1)C2 (stereo not drawn)
Result: 76.3 µM

Problem: State its TGI on SF-295 CNS: CCCC(=O)NC(Nc1ccc(S(=O)(=O)Nc2cc(C)on2)cc1)(C(=O)OCC)C(F)(F)F (stereo not drawn)
Result: > 100 µM

Problem: State its TGI on SF-295 CNS: `O=S(=O)(/C=C/c1ccc(F)cc1)Cc1ccc(CS(=O)(=O)/C=C/c2ccc(F)cc2)cc1`
Result: > 100 µM

Problem: State its TGI on SF-295 CNS: `COc1cc(OC)c2nc(C)c3c(c2c1)SCC3`
Result: 65.9 µM

Problem: State its TGI on SF-295 CNS: `CC(C)CNc1nc2ncnc(N)c2[nH]1`
Result: > 100 µM

Problem: State its TGI on SF-295 CNS: `OC1(c2ccccc2)CCN(Cc2c[nH]c3ccccc23)CC1`
Result: > 100 µM

Problem: State its TGI on SF-295 CNS: COc1ccc(C2=Nc3cc(C)c(C)cc3NC(c3ccccc3)C2)cc1 (stereo not drawn)
Result: > 100 µM

Problem: State its TGI on SF-295 CNS: `CCOc1ccc(N/C(=C(/C(Cl)=C(/Cl)N(CC)CC)[N+](=O)[O-])n2nnc3ccccc32)cc1`
Result: > 100 µM

====

Listed below: TGI values for each entry.
test system: OVCAR-4 ovarian; assay: NCI tumour cell line growth inhibition, 48 h

1. O=C1NC(Nc2ccccc2)=NC(C(F)(F)F)(C(F)(F)F)N1	> 100 µM
2. O=C(c1ccc(Cl)cc1Cl)C1[C@H]2C(=O)N(c3ccc(Cc4ccc(N5C(=O)[C@@H]6ON(c7ccccc7)C(C(=O)c7ccc(Cl)cc7Cl)[C@@H]6C5=O)cc4)cc3)C(=O)[C@H]2ON1c1ccccc1 (stereo not given in full)	> 50 µM
3. O=C1C(Cl)=C(OCCCl)C(=O)c2c(O)ccc(O)c21	5.46 µM
4. COc1ccc(CCN2CC=Cn3c2nc2ccccc2c3=O)cc1	> 96 µM

Problem: Given the entry `CC(C)CNc1nc2ncnc(N)c2[nH]1` , report its measured TGI.
Result: > 100 µM

Problem: Given the entry CC1CCC/C1=C(/I)C(=O)c1ccccc1 (stereo not given) , report its measured TGI.
Result: > 100 µM

Problem: Given the entry `O=c1[nH]nc(-c2ccccc2)n1/N=C\c1ccccc1` , report its measured TGI.
Result: > 100 µM

Problem: Given the entry `CSc1nnc(CCC(=O)Nc2c(C)cccc2C)o1` , report its measured TGI.
Result: > 100 µM

Problem: Given the entry CCCC(=O)NC(Nc1ccc(S(=O)(=O)Nc2cc(C)on2)cc1)(C(=O)OCC)C(F)(F)F (stereo not given) , report its measured TGI.
Result: > 100 µM

Problem: Given the entry COP(=O)(OC)C(Cc1cn(C(C)=O)c2ccccc12)C(=O)O (stereo not given) , report its measured TGI.
Result: > 100 µM

Problem: Given the entry `OC1(c2ccccc2)CCN(Cc2c[nH]c3ccccc23)CC1` , report its measured TGI.
Result: > 100 µM

Problem: Given the entry `CC(C)=NN/C(=N\S(=O)(=O)c1ccc(Oc2cccc(Cl)c2C#N)cc1)Nc1ccc(Cl)cc1` , report its measured TGI.
Result: > 100 µM

Problem: Given the entry Cc1cn(C2CC3C(COCN3O)O2)c(=O)[nH]c1=O (stereo not given) , report its measured TGI.
Result: > 100 µM

Problem: Given the entry `O=C(N/N=C/C=C/c1ccc([N+](=O)[O-])o1)c1cc2ccccc2cc1O` , report its measured TGI.
Result: 2.77 µM

Problem: Given the entry `CCOC(=O)c1nc2ccc(C(F)(F)F)cc2nc1Oc1cc(OC)c(OC)c(OC)c1` , report its measured TGI.
Result: 7.69 µM

Problem: Given the entry `O=C1C[C@@H](C(=O)OCc2ccccc2)NC(=O)C[C@@H](C(=O)OCc2ccccc2)NC(=O)C[C@@H](C(=O)OCc2ccccc2)N1` , report its measured TGI.
Result: > 100 µM

Problem: Given the entry `COc1cc2ccnc3c2c(c1OC)-c1coc(SC)c1-3` , report its measured TGI.
Result: > 100 µM

Problem: Given the entry `COC(=O)c1cc(=O)[nH]c(=O)[nH]1` , report its measured TGI.
Result: > 100 µM

Problem: Given the entry `CCOc1ccc(N/C(=C(/C(Cl)=C(/Cl)N(CC)CC)[N+](=O)[O-])n2nnc3ccccc32)cc1` , report its measured TGI.
Result: 52.8 µM

Problem: Given the entry CC1=C(C(=O)Nc2ccc3n[nH]c(C)c3c2)C(c2ccc(C(F)(F)F)cc2)CC(=O)N1 (stereo not given) , report its measured TGI.
Result: > 25 µM

====

test system: ACHN renal; assay: NCI tumour cell line growth inhibition, 48 h
Listed below: TGI values for each entry.

Previously resolved entries follow.
1) CN(C)c1nc(N)nc(CS)n1	> 100 µM
2) Cc1cc([N+](=O)[O-])c(NS(=O)(=O)c2cccc(C(=O)O)c2)cc1-c1cccnc1	> 100 µM

Kindly review the next compound as well.
Problem: Given the entry CC1=C(C(=O)Nc2ccc3n[nH]c(C)c3c2)C(c2ccc(C(F)(F)F)cc2)CC(=O)N1 (stereo not drawn) , report its measured TGI.
Result: > 25 µM

====

Listed below: TGI values for each entry.
test system: 786-0 renal; assay: NCI tumour cell line growth inhibition, 48 h

Problem: Given the entry O=C1OCC2=C1C(c1cccc(Cl)c1)c1cc3c(cc1N2CCO)OCCO3 (centres undefined) , report its measured TGI.
Result: 5.5 µM

Problem: Given the entry `NCCCC[C@@H]1NC(=O)[C@H]2CCCN2C(=O)[C@H](Cc2ccccc2)CNC(=O)[C@H](Cc2ccccc2)NC1=O` , report its measured TGI.
Result: > 37.5 µM

Problem: Given the entry `O=S(=O)(/C=C/c1ccc(F)cc1)Cc1ccc(CS(=O)(=O)/C=C/c2ccc(F)cc2)cc1` , report its measured TGI.
Result: > 100 µM

Problem: Given the entry O=S(Nc1ccccc1)c1ccc(N2CCOCC2)cc1 (centres undefined) , report its measured TGI.
Result: > 100 µM
